Molecular target: Androgen receptor (Homo sapiens, UniProt P10275, T878A)
Sequence (P10275 whole entry T878A): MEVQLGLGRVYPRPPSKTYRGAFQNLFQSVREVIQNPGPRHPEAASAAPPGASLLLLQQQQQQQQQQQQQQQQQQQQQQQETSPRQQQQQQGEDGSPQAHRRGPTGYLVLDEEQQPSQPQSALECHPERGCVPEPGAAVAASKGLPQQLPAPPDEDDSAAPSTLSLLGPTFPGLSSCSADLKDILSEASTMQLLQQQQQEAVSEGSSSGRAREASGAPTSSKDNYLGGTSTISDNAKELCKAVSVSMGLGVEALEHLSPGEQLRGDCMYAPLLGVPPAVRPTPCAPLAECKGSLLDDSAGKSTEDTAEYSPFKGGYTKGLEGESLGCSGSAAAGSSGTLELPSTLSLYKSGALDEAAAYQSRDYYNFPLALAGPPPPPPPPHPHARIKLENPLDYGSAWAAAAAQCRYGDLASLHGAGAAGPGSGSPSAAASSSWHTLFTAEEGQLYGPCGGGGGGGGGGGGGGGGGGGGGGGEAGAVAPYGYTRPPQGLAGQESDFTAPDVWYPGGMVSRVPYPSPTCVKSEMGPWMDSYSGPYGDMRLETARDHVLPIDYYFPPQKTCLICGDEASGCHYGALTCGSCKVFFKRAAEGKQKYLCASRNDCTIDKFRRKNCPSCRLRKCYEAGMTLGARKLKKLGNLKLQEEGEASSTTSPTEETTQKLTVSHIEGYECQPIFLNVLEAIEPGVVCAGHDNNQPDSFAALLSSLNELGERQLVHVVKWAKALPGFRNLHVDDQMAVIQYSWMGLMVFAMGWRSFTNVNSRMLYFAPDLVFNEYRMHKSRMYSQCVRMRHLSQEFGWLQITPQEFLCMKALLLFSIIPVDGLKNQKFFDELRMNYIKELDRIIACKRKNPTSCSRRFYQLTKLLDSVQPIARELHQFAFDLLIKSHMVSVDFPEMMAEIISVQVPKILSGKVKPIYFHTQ
Assay: Displacement of [17-alpha-methyl-3H]-mibolerone from human androgen receptor T877A mutant expressed in HEK293 derived FreeStyle293F cells after 3 hrs
Assay type: cell-based
IC50 for assorted molecules
Numeric only. Scale: nM

>  <input-smiles>
Cc1cc(-c2ccc([N+](=O)[O-])cc2)c(C)n1Cc1ccccc1

>  <IC50 / nM>
2.2

$$$$
>  <input-smiles>
CCOC(=O)c1c(-c2ccc([N+](=O)[O-])cc2)c(C)n(C)c1C

>  <IC50 / nM>
30

$$$$
>  <input-smiles>
CCOC(=O)c1c(-c2ccc([N+](=O)[O-])cc2)c(C)n(-c2ccccc2)c1C

>  <IC50 / nM>
220

$$$$
>  <input-smiles>
Cc1c(C#N)c(-c2ccc(C#N)cc2)c(C)n1Cc1cncc(CO)c1

>  <IC50 / nM>
150

$$$$
>  <input-smiles>
COC(=O)c1c(-c2ccccc2)c(C)n(Cc2ccccc2)c1C

>  <IC50 / nM>
65

$$$$
>  <input-smiles>
Cc1c(C(=O)O)c(-c2ccc([N+](=O)[O-])cc2)c(C)n1Cc1ccccc1

>  <IC50 / nM>
190

$$$$
>  <input-smiles>
Cc1c(C#N)c(-c2ccc(C#N)cc2)c(C)n1Cc1ccccc1

>  <IC50 / nM>
3

$$$$
>  <input-smiles>
CCOC(=O)c1c(-c2ccc([N+](=O)[O-])cc2)c(C)n(S(=O)(=O)c2ccccc2)c1C

>  <IC50 / nM>
62

$$$$

Q: Please give the measured IC50 for this molecule: `COC(=O)c1c(-c2ccc(C#N)c(C(F)(F)F)c2)c(C)n(Cc2ccccc2)c1C`
A: 4.7

Q: Same question, `Cc1c(-c2ccc(C#N)cc2)c(C#N)cn1Cc1cnc(Cl)c(CO)c1` this time
A: 1100

Q: Same question, `Cc1c(C#N)c(-c2ccc(C#N)cc2)cn1Cc1cnc(Cl)c(CO)c1` this time
A: 160

Q: Same question, `Cc1c(C#N)c(-c2ccc(C#N)cc2)c(C)n1Cc1cnc(Cl)c(CO)c1` this time
A: 100

Q: Same question, `COC(=O)c1c(-c2ccc([N+](=O)[O-])cc2)c(C)n(Cc2ccccc2)c1C` this time
A: 3.8
